B1: PPP2R2B (parent)
chain: PSNRSFFSEIISSISDVKFSHSGR

Variants of: B1
Assay: protein stability index of a GFP-peptide fusion (GPS, HEK-293T) (PSI 1-6); higher = more stable;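 further: lentivirally expressed fusions sorted by FACS into six bins by GFP to DsRed ratio, PSI derived from sequencing read proportions per bin multiplied by bin number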
Details: c terminus: a fixed tail appended
MEASURED_PROPERTY: protein stability index
A bare number is all that is needed in reply.

In: Item under review: PSNLSFFSEIISSISDVKFSHSGR [R4L] . Reported protein stability index?
Out: 2.41

In: Item under review: PSNRYFFSEIISSISDVKFSHSGR [S5Y] . Reported protein stability index?
Out: 2.04

In: Item under review: PSNRSFFSEIISSISDVKFYHSGR [S20Y] . Reported protein stability index?
Out: 1.75

In: Item under review: PSNRSFFSEIISSISDAKFSHSGR [V17A] . Reported protein stability index?
Out: 2.27

In: Item under review: PSNRSFFSVIISSISDVKFSHSGR [E9V] . Reported protein stability index?
Out: 2.15

In: Item under review: PSNRFFFSEIISSISDVKFSHSGR [S5F] . Reported protein stability index?
Out: 2.54

In: Item under review: PSNRSFFSEIISSISDVKFSHSPR [G23P] . Reported protein stability index?
Out: 2.74

In: Item under review: PSNRSFFSEIISSISDVKFSQSGR [H21Q] . Reported protein stability index?
Out: 2.26

In: Item under review: PYNRSFFSEIISSISDVKFSHSGR [S2Y] . Reported protein stability index?
Out: 2.64

In: Item under review: PSNRSFFSEIISSISEVKFSHSGR [D16E] . Reported protein stability index?
Out: 2.28

In: Item under review: PINRSFFSEIISSISDVKFSHSGR [S2I] . Reported protein stability index?
Out: 2.02

In: Item under review: TSNRSFFSEIISSISDVKFSHSGR [P1T] . Reported protein stability index?
Out: 2.39

In: Item under review: PSNRSFFSEIISSISDMKFSHSGR [V17M] . Reported protein stability index?
Out: 2.53

In: Item under review: PSNRSFFSEIISSISDVKFSHSRR [G23R] . Reported protein stability index?
Out: 2.54

In: Item under review: PSNRQFFSEIISSISDVKFSHSGR [S5Q] . Reported protein stability index?
Out: 2.42

In: Item under review: PSNRSFKSEIISSISDVKFSHSGR [F7K] . Reported protein stability index?
Out: 3.26

In: Item under review: PTNRSFFSEIISSISDVKFSHSGR [S2T] . Reported protein stability index?
Out: 2.44

In: Item under review: PSNRSFFSEIISSISDVKFSHSGT [R24T] . Reported protein stability index?
Out: 2.33

In: Item under review: PSNRSFCSEIISSISDVKFSHSGR [F7C] . Reported protein stability index?
Out: 2.83

In: Item under review: PSNESFFSEIISSISDVKFSHSGR [R4E] . Reported protein stability index?
Out: 2.81

In: Item under review: PSWRSFFSEIISSISDVKFSHSGR [N3W] . Reported protein stability index?
Out: 2.75
